FYI, the data here is from the NIST ThermoML archive (doi:10.1021/je501178z).

- PROCEDURE SUMMARY: mn = molality of the nth substance listed, in mol/kg
- MEASUREMENT CONTEXT: 323.15 K; 101.3 kPa; Liquid; Capillary tube (Ostwald / Ubbelohde) method; m1 = 0.6
ASSAY METRIC: viscosity (mPa·s)

COMPOUND	viscosity, mPa·s
OC[C@@H](O)[C@@H](O)[C@H](O)[C@H](O)CO [D-mannitol] + O	0.693
N=C(N)NCCC[C@H](N)C(=O)O [L-arginine] + O	0.714
C[C@@H](O)[C@H](N)C(=O)O [L-threonine] + O	0.649
NCC(=O)O [2-aminoacetic acid] + O	0.596
